AC50 for assorted compounds
# tgt: human VDR receptor (Homo sapiens, UniProt P11473)
# Construct: expressed in transfected cells; host or cells: HeLa
# Sequence (P11473 1-427): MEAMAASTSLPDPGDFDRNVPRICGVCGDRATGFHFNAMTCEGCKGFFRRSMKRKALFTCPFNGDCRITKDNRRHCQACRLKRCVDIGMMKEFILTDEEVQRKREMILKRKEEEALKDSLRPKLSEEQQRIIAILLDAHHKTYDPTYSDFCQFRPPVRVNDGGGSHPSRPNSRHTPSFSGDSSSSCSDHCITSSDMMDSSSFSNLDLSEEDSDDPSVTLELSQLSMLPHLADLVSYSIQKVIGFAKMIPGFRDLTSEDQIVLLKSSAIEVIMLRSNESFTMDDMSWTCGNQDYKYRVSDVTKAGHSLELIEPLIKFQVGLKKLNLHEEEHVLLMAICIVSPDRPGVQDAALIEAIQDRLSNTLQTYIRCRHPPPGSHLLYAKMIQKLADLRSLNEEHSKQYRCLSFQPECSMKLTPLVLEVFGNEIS
# experimental_details: VDR agonist activity, HeLa cotransfection with reporter plasmid p240Hase-CAT
# Assay type: cell-based
# conditions: HeLa cells, treatment for 18 hours, CAT activity by ELISA
# Protocol: By way of example, the VDR agonist activity may be tested on the HeLa cell line by cotransfection of an expression vector of the human VDR receptor and of the reporter plasmid p240Hase-CAT. The agonist activity may also be characterized in this cotransfection system, by determining the dose required to achieve 50% of the maximum activity of the product (AC50). 18 hours after cotransfection, the test compound is added to the medium. […]
All answers are understood in nM, so give the number only.

                                   compound                                       tgt  result
0  CCCc1cc(C(O)(CC)CC)ccc1-c1cc(CCc2ccc(CO)c(CO)c2)ccc1C [Example 5]  human VDR receptor (Homo sapiens, UniProt P11473)     0.6
1  CCCc1cc(C(O)(CC)CC)ccc1-c1cc(OCc2ccc(CO)c(CO)c2)ccc1C [Example 1]  human VDR receptor (Homo sapiens, UniProt P11473)     2.4
2  CCC(O)(CC)c1ccc(-c2cc(NCc3ccc(CO)c(CO)c3)ccc2C)c(C)c1 [Example 6]  human VDR receptor (Homo sapiens, UniProt P11473)      50
3  CCc1cc(C(O)(CC)CC)ccc1-c1cc(OCc2ccc(CO)c(CO)c2)ccc1CC [Example 2]  human VDR receptor (Homo sapiens, UniProt P11473)     4.1
4  CCCc1cc(C(O)(CC)CC)ccc1-c1cc(OCc2ccc(CO)c(CO)c2)ccc1CC [Example 3]  human VDR receptor (Homo sapiens, UniProt P11473)     2.2

Okay, now this compound:
Under human VDR receptor (Homo sapiens, UniProt P11473): report AC50 of CCc1ccc(OCc2ccc(CO)c(CO)c2)cc1-c1ccc(C(O)(CC)CC)cc1C(C)C [Example 4] .
3.2
